Hey, just so you know, these numbers are from PubChem BioAssay (NCI).

System: IGROV1 ovarian
Assay: NCI-60 one-dose screen, 48 h (100 = growth as untreated, 0 = no growth, -100 = all killed)
Settings: 10 µM unless noted
The panel holds about 83,000 compounds, 20% with a hit somewhere; the sample as a whole holds those more often.
Test Readout: growth (%)
Just the number please, in %, no unit attached.

Just so you know, measured growth for CCCCCCCCc1cc[n+](CC(=O)c2ccc(Br)cc2)cc1 came out at 1.68

Just so you know, measured growth for O=C(Oc1ccc([N+](=O)[O-])cc1)c1ccc(CBr)cc1 came out at 90.7

Just so you know, measured growth for N#Cc1c(-c2ccc(C(F)(F)F)cc2)cc(N2CC(O)C2)n2c1nc1ccccc12 came out at 60.9

Just so you know, measured growth for Nc1ccc2c(S(=O)(=O)O)ccc(S(=O)(=O)O)c2c1 came out at 82.5

Just so you know, measured growth for Cc1ccc(S(=O)(=O)Nc2sccc2-c2nc(-c3ccccc3)no2)cc1 came out at 87.9

Just so you know, measured growth for COc1ccc(-c2c(N)n[nH]c2-c2ccccc2O)cc1OC came out at 94.6

Just so you know, measured growth for CCOc1ccc2nc(-c3cccc(OCC(=O)NC(C)C)c3)nc(Nc3ccc(-c4cn[nH]c4)cc3)c2c1 came out at 20.9

Just so you know, measured growth for Cc1c(C(=O)O)nnn1-c1nccs1 came out at 104

Just so you know, measured growth for CCOC(=O)c1cnn2c(-c3ccc(Cl)cc3)nc(NCc3ccccc3)nc12 came out at 64.8

Just so you know, measured growth for O=C(O)c1ccccc1C(=O)Nc1ccc(Cl)cc1 came out at 102

Just so you know, measured growth for Cc1cc(=O)[nH]c(N/N=C/c2cc(Br)ccc2O)n1 came out at -0.435
